- protocol_description: In vivo pharmacokinetics in rats after single administration
- details: male, Sprague-Dawley, rat, plasma, 10 mg/kg, 10 mpk oral administration
recorded_endpoint: Tmax (min)
Entry rule: numbers only, all in min.

input: I have this compound here, COCCN1C[C@@H](n2ccc(F)c2)[C@H](NC(=O)Nc2c(C)c(-c3cnc(C4(F)COC4)nc3)nn2-c2ccccc2)C1 , and I need its recorded Tmax.
output: 37.8

###

- target_system: CYP2C9 (Homo sapiens)
- Sequence (P11712 whole entry): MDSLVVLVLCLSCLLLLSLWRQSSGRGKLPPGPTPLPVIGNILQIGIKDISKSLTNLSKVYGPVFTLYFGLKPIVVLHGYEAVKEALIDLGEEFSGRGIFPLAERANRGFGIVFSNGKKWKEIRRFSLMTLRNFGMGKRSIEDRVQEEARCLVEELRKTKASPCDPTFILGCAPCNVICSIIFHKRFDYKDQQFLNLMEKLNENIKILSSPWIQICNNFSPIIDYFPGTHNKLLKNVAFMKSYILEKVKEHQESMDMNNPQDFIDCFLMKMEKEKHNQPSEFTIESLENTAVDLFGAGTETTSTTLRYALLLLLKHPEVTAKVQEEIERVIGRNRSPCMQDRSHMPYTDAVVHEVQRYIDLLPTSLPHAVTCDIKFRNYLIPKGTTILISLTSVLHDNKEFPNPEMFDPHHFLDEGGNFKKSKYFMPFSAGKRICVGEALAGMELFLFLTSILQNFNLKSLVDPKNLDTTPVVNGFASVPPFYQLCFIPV
recorded_endpoint: IC50

input: Reported IC50 for CYP2C9 (Homo sapiens), given COCCN1C[C@@H](NC(=O)Nc2c(C)c(-c3cnc(C)nc3)nn2-c2ccccc2)[C@H](c2cccc(F)c2)C1 [Reference compound D1, reference compound] ?
output: > 50 µM

###

- protocol_description: In vivo pharmacokinetics in rats after single administration
- details: male, Sprague-Dawley, rat, plasma, 10 mg/kg, 10 mpk oral administration
recorded_endpoint: half-life

input: Fill in the blank: the reported half-life of COCCN1C[C@@H](n2ccc(F)c2)[C@H](NC(=O)Nc2c(C)c(-c3cnc(C4(F)COC4)nc3)nn2-c2ccccc2)C1 is ____.
output: 1.6 h

###

- target_system: CYP2D6 (Homo sapiens)
- Construct: from tissue; host or cells: human liver microsomes
- Sequence (P10635 whole entry): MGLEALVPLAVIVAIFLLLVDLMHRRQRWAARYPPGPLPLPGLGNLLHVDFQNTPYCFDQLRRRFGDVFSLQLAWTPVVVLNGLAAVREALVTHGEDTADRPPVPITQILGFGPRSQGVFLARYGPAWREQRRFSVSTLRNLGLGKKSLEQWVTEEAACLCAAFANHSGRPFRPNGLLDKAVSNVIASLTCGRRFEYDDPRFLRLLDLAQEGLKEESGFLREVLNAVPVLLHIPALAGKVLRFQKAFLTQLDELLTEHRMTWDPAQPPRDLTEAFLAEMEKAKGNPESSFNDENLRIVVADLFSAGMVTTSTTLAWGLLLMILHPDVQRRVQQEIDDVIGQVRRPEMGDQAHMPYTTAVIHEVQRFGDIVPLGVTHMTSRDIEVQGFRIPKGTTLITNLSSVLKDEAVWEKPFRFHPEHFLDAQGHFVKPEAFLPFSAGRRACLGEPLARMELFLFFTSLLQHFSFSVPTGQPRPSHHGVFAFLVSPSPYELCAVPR
- protocol_description: Cytochrome P450 isozyme inhibitory activity test, CYP2D6
- Type: in vitro ADME
- details: human liver microsomes
Some molecules, each annotated with its measured IC50 at 10 min.
# output: bare number, implied unit µM

>>> recorded_value("COCCN1C[C@@H](NC(=O)Nc2c(C)c(-c3cnc(C)nc3)nn2-c2ccccc2)[C@H](c2cccc(F)c2)C1 [Reference compound D1, reference compound]")
39.7

input: Request - read-out IC50 at 10 min | tested on CYP2D6 (Homo sapiens) | molecule COCCN1C[C@@H](n2cc(F)c(F)c2)[C@H](NC(=O)Nc2c(C)c(-c3cnc4c(c3)COC4)nn2-c2ccccc2)C1
output: 28.5

###

- target_system: CYP3A4 (Homo sapiens, UniProt P08684)
- Construct: from tissue; host or cells: human liver microsomes
- Sequence (P08684 whole entry): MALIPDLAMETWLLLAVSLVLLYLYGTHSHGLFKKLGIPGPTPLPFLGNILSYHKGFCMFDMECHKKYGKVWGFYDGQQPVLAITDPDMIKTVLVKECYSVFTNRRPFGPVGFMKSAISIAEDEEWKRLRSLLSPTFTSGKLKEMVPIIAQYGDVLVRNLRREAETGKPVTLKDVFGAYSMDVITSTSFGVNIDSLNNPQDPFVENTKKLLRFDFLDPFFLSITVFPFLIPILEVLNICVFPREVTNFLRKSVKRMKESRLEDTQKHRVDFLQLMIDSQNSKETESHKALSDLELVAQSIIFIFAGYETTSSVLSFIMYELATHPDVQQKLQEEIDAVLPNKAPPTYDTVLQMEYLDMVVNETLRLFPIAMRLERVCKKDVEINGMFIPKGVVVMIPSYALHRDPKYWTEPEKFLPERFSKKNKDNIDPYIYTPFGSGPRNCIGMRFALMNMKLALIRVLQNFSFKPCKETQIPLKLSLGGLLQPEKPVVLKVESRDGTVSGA
- protocol_description: Cytochrome P450 isozyme inhibitory activity test, CYP3A4
- Assay type: in vitro ADME
- details: human, human liver microsomes
recorded_endpoint: IC50 at 10 min (µM)
I only need the number, in µM, no unit after it.

>>> recorded_value("COCCN1C[C@@H](n2cc(F)c(F)c2)[C@H](NC(=O)Nc2c(C)c(-c3cnc4c(c3)COC4)nn2-c2ccccc2)C1")
19.2

input: Could you tell me which IC50 at 10 min is on file for COCCN1C[C@@H](NC(=O)Nc2c(C)c(-c3cnc(C)nc3)nn2-c2ccccc2)[C@H](c2cccc(F)c2)C1 [Reference compound D1, reference compound] ?
output: 37.1
